Source: PubChem BioAssay (NCATS)

Target: Cytochrome P450 2C9 (Homo sapiens) (UniProt P11712)
Sequence (P11712 whole entry, looked up): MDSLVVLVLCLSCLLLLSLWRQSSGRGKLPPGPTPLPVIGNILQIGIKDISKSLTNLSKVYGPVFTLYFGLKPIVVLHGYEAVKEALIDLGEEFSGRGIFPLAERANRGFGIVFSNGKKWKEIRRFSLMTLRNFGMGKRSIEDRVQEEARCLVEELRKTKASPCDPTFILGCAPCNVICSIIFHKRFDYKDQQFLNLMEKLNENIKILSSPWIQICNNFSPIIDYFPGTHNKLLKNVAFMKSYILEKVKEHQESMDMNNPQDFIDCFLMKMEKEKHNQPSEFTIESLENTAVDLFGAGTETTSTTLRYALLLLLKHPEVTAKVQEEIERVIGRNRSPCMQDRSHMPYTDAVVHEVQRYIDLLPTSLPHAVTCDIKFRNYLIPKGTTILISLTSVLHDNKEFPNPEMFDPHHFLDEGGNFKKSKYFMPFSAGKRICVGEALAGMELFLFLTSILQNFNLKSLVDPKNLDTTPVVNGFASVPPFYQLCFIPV
Test: Cytochrome P450 family 2 subfamily C member 9 (CYP2C9) small molecule antagonists: luciferase biochemical (cell-free) qHTS assay (AID 1645842); also: nearly all actives have a fitted effect of over 55% in size
Conditions: P450-Glo CYP2C9 enzyme assay, luciferin luminescence; series mostly up to 57.4 µM
Results filed as inconclusive are left out. Active and inactive are the calls of the source. Calls follow the shape of the dose curve; as a rule, active = well fitted inhibition curve with a large enough effect in the repeat runs; inconclusive = weak or mixed curves; inactive = no such curve, though single readings can be large or run the other way.
Result category, one only: active, inactive

{"molecule": "COC(=O)CCCCC(CCSS/C(CCO)=C(\\C)N(C=O)Cc1cnc(C)nc1N)SC(C)=O (stereo not given)", "class": "inactive"}
{"molecule": "Cc1c(F)cc2c(=O)c(C(=O)O)cn3c2c1CCC3C (stereo not given)", "class": "inactive"}
{"molecule": "CN1[C@@H]2CC[C@H]1CC(NC(=O)n1c(=O)[nH]c3ccccc31)C2 (stereo not given in full)", "class": "inactive"}
{"molecule": "O=C1OC2(c3ccccc31)c1cc(I)c(O)c(I)c1Oc1c2cc(I)c(O)c1I", "class": "active"}
{"molecule": "CN1CCC(N(Cc2cccs2)c2ccccc2)CC1", "class": "inactive"}
{"molecule": "CN1C(CSCC(F)(F)F)Nc2cc(Cl)c(S(N)(=O)=O)cc2S1(=O)=O (stereo not given)", "class": "inactive"}
{"molecule": "CN1CCCN(C(c2ccccc2)c2ccc(Cl)cc2)CC1 (stereo not given)", "class": "inactive"}
{"molecule": "CN=C(N)NC(=O)Nc1c(C)cccc1C", "class": "inactive"}

Query: Give the logged outcome of this assay for the following molecule: Cc1sccc1Br
Result: inactive

Query: Give the logged outcome of this assay for the following molecule: C/C(=N/NC(=O)c1ccncc1)C(=O)O
Result: inactive

* * *

The compounds listed here are annotated with their max response.
Tested on: CRL-7250
Experiment: Cytotoxic Profiling of Annotated Libraries Using Quantitative High-Throughput Screening (AID 1296008); also: % is scaled to controls: 0 for no effect and ±100 for the full control effect; nearly all actives have a fitted effect of over 60% in size
Settings: Five cell lines viability, CellTiter-Glo ATP luminescence, 48-72 h; active compounds read low
Inconclusive results are not listed.
Report as a plain number; the unit % is understood.

{"compound": "CC(C)C(C)(C)C(C)(C)C(C)(C)S", "display unit": "%", "max response": -4.15}

Query: Return value of max response for input CN1[C@@H]2CC[C@H]1CC(NC(=O)n1c(=O)[nH]c3ccccc31)C2 (some centres undefined) , no commentary.
Result: -3.19

Query: Return value of max response for input C=CCOc1cc(Cl)ccc1C(=O)NCCN(CC)CC , no commentary.
Result: -3.78

Query: Return value of max response for input CCCCNc1ccc(C(=O)OCCN(CC)CC)cc1 , no commentary.
Result: -6.06

* * *

Test system: KB-3-1
Test: Cytotoxic Profiling of Annotated Libraries Using Quantitative High-Throughput Screening (AID 1296008); also: % is scaled to controls: 0 for no effect and ±100 for the full control effect; nearly all actives have a fitted effect of over 60% in size
Details: Five cell lines viability, CellTiter-Glo ATP luminescence, 48-72 h; active compounds read low
Inconclusive results are not listed.
The compounds listed here are annotated with their max response.
Report as a plain number; the unit % is understood.

Study these solved cases before continuing.
{"compound": "CC(NCCC(c1ccccc1)c1ccccc1)c1ccccc1 (configuration not stated)", "attribute measured": "max response", "measurement": -10.5}
{"compound": "O=C(Oc1ccccc1)c1ccccc1O", "attribute measured": "max response", "measurement": -0.601}
{"compound": "Cn1cc(S(C)=O)c(=O)c2ccc(F)cc21 (configuration not stated)", "attribute measured": "max response", "measurement": 2.67}
{"compound": "Brc1ccc([C@H]2CN3CCSC3=N2)cc1", "attribute measured": "max response", "measurement": 5.27}
{"compound": "Cc1ccccc1N1CCN(CCc2nnc3n2CCCC3)CC1", "attribute measured": "max response", "measurement": -5.62}

Query: Return value of max response for input Brc1ccccc1-c1ccccc1 , no commentary.
Result: -3.53

Query: Return value of max response for input CC(C)(C)C(=O)OCOC(=O)C1N2C(=O)CC2S(=O)(=O)C1(C)C (configuration not stated) , no commentary.
Result: -11.8
